# subject_of_test: Stimulator of interferon genes protein (Mus musculus, UniProt Q3TBT3)
# Sequence (Q3TBT3 whole entry, the tested form may be a part): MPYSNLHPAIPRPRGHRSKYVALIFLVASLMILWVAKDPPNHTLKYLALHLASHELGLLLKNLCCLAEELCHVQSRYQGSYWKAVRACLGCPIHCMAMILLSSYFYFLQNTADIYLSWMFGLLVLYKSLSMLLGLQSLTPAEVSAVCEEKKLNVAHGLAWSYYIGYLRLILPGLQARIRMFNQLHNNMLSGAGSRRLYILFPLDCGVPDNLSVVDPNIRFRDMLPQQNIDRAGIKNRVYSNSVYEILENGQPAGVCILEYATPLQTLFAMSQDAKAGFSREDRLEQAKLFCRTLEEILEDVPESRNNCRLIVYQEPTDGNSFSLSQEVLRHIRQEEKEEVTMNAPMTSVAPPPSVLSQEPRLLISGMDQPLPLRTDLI
# assay_summary: Agonist activity at mouse 6His-tagged recombinant STING CTD (144 to 378 residues) expressed in Escherichia coli BL21 (DE3) incubated for 10 mins by FRET assay
reported_endpoint: IC50 (nM)

I. C#Cc1cc(NC(=O)c2ccc(-c3ccnnc3)nn2)c(C(=O)O)cc1F
II. CCCn1c(NC(=O)c2cc(C)nn2CC)nc2cc(C(N)=O)cc(OC3COC3)c21
-- ask Form: Entry with minimum IC50 (choose one): I / II Returns: label corresponding to the selected item.
-- reply I

---

# subject_of_test: UniProtKB Q3TBT3
# assay_summary: Agonist activity at mouse STING in mouse RAW-Lucia ISG cells incubated for 24 hrs in presence of PMA by luciferase reporter assay
# Assay type: cell-based
pEC50: −log10 of the molar value.
reported_endpoint: pEC50

// known answers, use as guide
>>> numeric_value("O=C(Nc1cc(Cl)c(F)cc1C(=O)O)c1ccc(-c2ccnnc2)nn1")
4.45
>>> numeric_value("CCCn1c(NC(=O)c2cc(C)nn2CC)nc2cc(C(N)=O)cc(OC3COC3)c21")
5.28
>>> numeric_value("O=C(Nc1cc(Br)c(F)cc1C(=O)O)c1ccc(-c2ccnnc2)nn1")
4.38

A. C#Cc1cc(NC(=O)c2ccc(-c3ccnnc3)nn2)c(C(=O)O)cc1F
B. COc1cc2cc(C(=O)CCC(=O)O)sc2cc1OC
-- ask Short answer wanted: higher pEC50, A or B ? # reply format: chosen label
-- reply A
(A: 4.89, B: 4.46)
